Listed compounds paired with reported DC50
tgt: BRAF^V600E protein (Homo sapiens, UniProt P15056, V600E)
Sequence (P15056 whole entry V600E): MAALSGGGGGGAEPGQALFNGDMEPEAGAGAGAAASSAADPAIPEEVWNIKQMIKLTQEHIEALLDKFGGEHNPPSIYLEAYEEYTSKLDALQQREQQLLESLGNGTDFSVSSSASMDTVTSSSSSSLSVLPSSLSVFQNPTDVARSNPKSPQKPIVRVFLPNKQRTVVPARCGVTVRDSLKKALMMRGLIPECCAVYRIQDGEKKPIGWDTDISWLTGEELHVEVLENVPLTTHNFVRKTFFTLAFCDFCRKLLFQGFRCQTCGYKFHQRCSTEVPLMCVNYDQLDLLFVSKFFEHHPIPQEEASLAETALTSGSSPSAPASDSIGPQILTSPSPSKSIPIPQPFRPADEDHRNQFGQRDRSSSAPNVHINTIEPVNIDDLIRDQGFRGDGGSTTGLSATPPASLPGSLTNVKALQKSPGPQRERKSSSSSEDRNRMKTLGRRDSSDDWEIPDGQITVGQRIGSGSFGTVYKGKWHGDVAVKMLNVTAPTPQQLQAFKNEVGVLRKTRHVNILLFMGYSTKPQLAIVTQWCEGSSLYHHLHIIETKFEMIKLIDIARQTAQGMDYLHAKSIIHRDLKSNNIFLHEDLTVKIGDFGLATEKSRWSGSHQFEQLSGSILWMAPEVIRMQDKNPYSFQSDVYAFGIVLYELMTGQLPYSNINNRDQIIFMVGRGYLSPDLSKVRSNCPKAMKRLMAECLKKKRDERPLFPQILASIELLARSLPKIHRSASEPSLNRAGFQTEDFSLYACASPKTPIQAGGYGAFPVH
assay-procedure: HiBiT cellular BRAF V600E degradation assay
Assay type: cell-based
stated-conditions: A375.10 cells (HiBiT tag knocked in at N-terminal of BRAF V600E), 24 h incubation; concentration at which 50% of total cellular BRAF V600E is degraded
reported-property: DC50 (nM)

• CCN(C)S(=O)(=O)Nc1ccc(F)c(C(=O)c2c[nH]c3ncc(-c4cnc(N5CCN(C(=O)CC6(O)CCN(c7ccc(N[C@@H]8CCC(=O)NC8=O)cc7F)CC6)CC5)nc4)cc23)c1F [Example 174] = 2.39
• CCN(C)S(=O)(=O)Nc1ccc(F)c(C(=O)c2c[nH]c3ncc(-c4ccc(N5CCN(C(=O)CC6(O)CCN(c7ccc8c(N9CCC(=O)NC9=O)nn(C)c8c7)CC6)CC5)nc4)cc23)c1F [Example 193] = 1.7
• CCN(C)S(=O)(=O)Nc1ccc(F)c(C(=O)c2c[nH]c3ncc(-c4cnc(N5CCN(C(=O)CN6CCC(c7ccc(NC8CCC(=O)NC8=O)cc7)C(F)(F)C6)CC5)nc4)cc23)c1F (stereo not shown) [Example 30] = 4.27
• O=C(c1c(F)ccc(NS(=O)(=O)N2CCCC2)c1F)c1c[nH]c2ncc(-c3ccc(N4CC5(CN(C(=O)CN6CCC(c7ccc(NC89CC(C8)C(=O)NC9=O)cc7)CC6)C5)C4)cc3)cc12 [Example A117] = 192
• CCN(C)S(=O)(=O)Nc1ccc(F)c(C(=O)c2c[nH]c3ncc(-c4cnc(N5CCN(C(=O)CC6(O)CCN(c7ccc(N8CCC(=O)NC8=O)cc7Cl)CC6)CC5)nc4)cc23)c1F [Example 213] = 0.42
• CCN(C)S(=O)(=O)Nc1ccc(F)c(C(=O)c2c[nH]c3ncc(-c4ccc(N5CCN(C(=O)CN6CCC(c7ccc(O[C@H]8CCC(=O)NC8=O)cc7)CC6)CC5)nc4)cc23)c1F [Example A121] = 12
• CCN(C)S(=O)(=O)Nc1ccc(F)c(C(=O)c2c[nH]c3ncc(-c4cnc(N5CCN(C(=O)CN6CCC(N7CCN(C8CCC(=O)NC8=O)C(=O)C7)C(F)(F)C6)CC5)nc4)cc23)c1F (stereo not shown) [Example 173] = 6.37
• CCN(C)S(=O)(=O)Nc1ccc(F)c(C(=O)c2c[nH]c3ncc(-c4ccc(N5CCN(C(=O)CC6(O)CCN(c7ccc(N[C@@H]8CCC(=O)NC8=O)cc7F)CC6)CC5)nc4)cc23)c1F [Example 177] = 3.65
• CCN(C)S(=O)(=O)Nc1ccc(F)c(C(=O)c2c[nH]c3ncc(-c4ccc(N5CCN(C(=O)CN6CCC(c7ccc(OC8CCC(=O)NC8=O)cc7)CC6)CC5)nc4)cc23)c1F (stereo not shown) [Example A1] = 17
• CCN(C)S(=O)(=O)Nc1ccc(F)c(C(=O)c2c[nH]c3ncc(-c4ccc(CN5CCN(C(=O)CN6CCN(c7ccc(NC8CCC(=O)NC8=O)cc7)CC6)CC5)cc4)cc23)c1F.O=C(O)C(F)(F)F (stereo not shown) [Example A24] = 30
• CCN(C)S(=O)(=O)Nc1ccc(F)c(C(=O)c2c[nH]c3ncc(-c4cnc(N5CCN(C(=O)CN6CCC(c7ccc(N8CCC(=O)NC8=O)cc7)CC6)CC5)nc4)cc23)c1F [Example 24] = 5.59
• CCN(C)S(=O)(=O)Nc1cccc(C(=O)c2c[nH]c3ncc(-c4cnc(N5CCN(C(=O)CC6CCN(c7ccc(NC8CCC(=O)NC8=O)cc7C(F)(F)F)CC6)CC5)nc4)cc23)c1F (stereo not shown) [Example 106] = 34.8
• CCN(C)S(=O)(=O)Nc1ccc(F)c(C(=O)c2c[nH]c3ncc(-c4ccc(N5CCN(C(=O)CCCN6CCC(c7ccc(C8CCC(=O)NC8=O)cc7)CC6)CC5)nc4)cc23)c1F (stereo not shown) [Example A81] = 49
• CCN(C)S(=O)(=O)Nc1ccc(F)c(C(=O)c2c[nH]c3ncc(-c4cnc(N5CCN(C(=O)CN6CCC(c7ccc(NC8CCC(=O)NC8=O)cn7)CC6)CC5)nc4)cc23)c1F (stereo not shown) [Example A69] = 7
• CCN(C)S(=O)(=O)Nc1ccc(F)c(C(=O)c2c[nH]c3ncc(-c4ccc(N5CCN(C(=O)CN6CCC(c7ccc(O[C@@H]8CCC(=O)NC8=O)cc7)CC6)CC5)nc4)cc23)c1F [Example 74] = 32.5
• CCN(C)S(=O)(=O)Nc1ccc(F)c(C(=O)c2c[nH]c3ncc(-c4ccc(N5CCN(C(=O)CC6(O)CCN(c7cc(F)c(N8CCC(=O)NC8=O)cc7Cl)CC6)CC5)nc4)cc23)c1F [Example 215] = 2.71
• CCN(C)S(=O)(=O)Nc1ccc(F)c(C(=O)c2c[nH]c3ncc(-c4cnc(N5CCN(C(=O)CN6CCC(c7ccc(N[C@H]8CCC(=O)NC8=O)cc7)CC6)CC5)nc4)cc23)c1F (single isomer, unassigned) [Example A111] = 4
• CCN(C)S(=O)(=O)Nc1ccc(F)c(C(=O)c2c[nH]c3ncc(-c4ccc(C5CCN(C(=O)CN6CCC(c7ccc(NC8CCC(=O)NC8=O)cc7)CC6)CC5)cc4)cc23)c1F (stereo not shown) [Example A44] = 10.4
• CCN(C)S(=O)(=O)Nc1cccc(C(=O)c2c[nH]c3ncc(-c4cnc(N5CCN(C(=O)CN6CCC(c7ccc(NC8CCC(=O)NC8=O)cc7)CC6)CC5)nc4)cc23)c1F (stereo not shown) [Example 96] = 9.43
